system: OVCAR-5; experiment: NCI tumour cell line growth inhibition, 48 h
Activity calls are given as the source filed them. Rule as the data show it: active = GI50 up to about 1.1 µM and inactive = higher.
A correct response names exactly one class from label 1 (active), label 0 (inactive)

Worked examples follow.
{"compound": "COc1ccc(/N=N/c2c(C)c(C#N)c(=S)n(C3OC(CO)C(O)C(O)C3O)c2-c2ccccc2)cc1 (stereo not given)", "label.value": "label 0"}
{"compound": "Brc1c(C#CCC2CCCCC2)ccc(C#CCC2CCCCC2)c1Br", "label.value": "label 0"}
{"compound": "Nc1ccc(C(=O)CC(N)C(=O)O)cc1O (stereo not given)", "label.value": "label 0"}
{"compound": "COC(=O)CCC12CCC(=O)C1[C@@H](C(=O)OC)C[C@H]2C(=O)OC (stereo not given in full)", "label.value": "label 0"}
{"compound": "Cc1ccc(S(=O)(=O)OC2CN3CCC2CC3)cc1 (stereo not given)", "label.value": "label 0"}
{"compound": "CN(C)c1ccc(C(C#N)N2CCCN(C(C#N)c3ccc(N(C)C)cc3)C2c2ccc(N(C)C)cc2)cc1 (stereo not given)", "label.value": "label 0"}
{"compound": "COc1cc(COC(=O)N2CSCC2C(=O)O)c([N+](=O)[O-])cc1OC (stereo not given)", "label.value": "label 0"}
{"compound": "CC1=CCCC(OC(N)=O)C1 (stereo not given)", "label.value": "label 0"}

In: I'd appreciate the recorded outcome for COC(=O)/C=C1\C(CO[Si](C)(C)C(C)(C)C)OC(n2ccc(=O)[nH]c2=O)C1O (stereo not given) from this test.
Out: label 0

In: Hi, do you know how COC1C(=[N+]=[N-])C(=O)NC(=O)N1C1OC(COC(c2ccccc2)(c2ccccc2)c2ccccc2)C(O)C1O (stereo not given) came out in this test?
Out: label 0

In: Assay result, entry COc1cc(/C=C2\NC(=O)C3Cc4c(OC)c(C)c(OC)c(OC)c4C2N3C)c(OC)c(C)c1OC (stereo not given) — outcome?
Out: label 0

---

Can you tell me GI50 for the items I'm about to list?
tested on: PC-3; experiment: NCI tumour cell line growth inhibition, 48 h
Calls of active or inactive are those of the source. No stated cut-off is given here; in the data, active = GI50 up to about 1.1 µM and inactive = higher.

Batch of 3 compounds: report GI50 for each.
1. COc1ccc(/C=C(\Cl)c2ccc(OC)c(OC)c2)cc1OC
2. Cc1c(N)nc([C@H](CC(N)=O)NC[C@H](N)C(N)=O)nc1C(=O)N[C@H](C(=O)N[C@H](C)[C@@H](O)CC(=O)N[C@H](C(=O)NC(O[C@@H]1O[C@@H](C)[C@@H](N)[C@@H](O)[C@H]1O)C(O)c1nc(-c2nc(C(=O)NCCC[S+](C)C)cs2)cs1)[C@@H](C)O)[C@H](O[C@@H]1O[C@@H](CO)[C@@H](O)[C@H](O)[C@@H]1O[C@H]1O[C@H](CO)[C@@H](O)[C@H](OC(N)=O)[C@@H]1O)c1c[nH]cn1 (stereo not given in full)
3. CN(CC(=O)O)c1ncc2c(n1)-c1ccccc1OC2

Out:
1. > 100 µM (inactive)
2. 65 µM (inactive)
3. > 100 µM (inactive)

---

So I've got a bunch of compounds here, and I need their GI50 values.
tested on: Malme-3M; assay: NCI tumour cell line growth inhibition, 48 h
Activity calls are given as the source filed them. No stated cut-off is given here; in the data, active = GI50 up to about 1.1 µM and inactive = higher.

{"compound": "C=C(c1ccccc1)C1ON(C)CCc2cc(OC)c(OC)cc21 (stereo unspecified)", "study.target": "Malme-3M", "GI50": "96.4 µM (inactive)"}
{"compound": "Cc1cc(S(=O)(=O)O)c(NC(=O)C(=O)C2C=CCS2(=O)=O)cc1Cl (stereo unspecified)", "study.target": "Malme-3M", "GI50": "> 100 µM (inactive)"}
{"compound": "CSc1nc2c(nc(N)n2C2OC(CO)C(O)C(O)C2O)c(=O)[nH]1 (stereo unspecified)", "study.target": "Malme-3M", "GI50": "> 100 µM (inactive)"}
{"compound": "COc1ccc(/C=C/c2ccnc3ccccc23)cc1", "study.target": "Malme-3M", "GI50": "16.7 µM (inactive)"}

Each compound below has a reported value. Please supply its GI50.
1. Cc1cc(C)cc(-n2c3nc(=O)n(C)c(=O)c-3nc3ccccc32)c1
2. Cc1csc(NNC(=O)Nc2ccccc2)n1

Out:
1. 16 µM (inactive)
2. > 100 µM (inactive)

---

test system: A498; experiment: NCI tumour cell line growth inhibition, 48 h
Activity calls are given as the source filed them. No stated cut-off is given here; in the data, active = GI50 up to about 1.1 µM and inactive = higher.
observation.type: GI50

Here's what some known entries look like.
{"molecule": "Cc1ccc(S(=O)(=O)Oc2coc(CO)cc2=O)cc1", "observation.type": "GI50", "recorded.value": "15.5 µM (inactive)"}
{"molecule": "CSc1nc(NC2OCC(OC(C)=O)C(OC(C)=O)C2OC(C)=O)c(/N=C\\C=N\\c2c(NC3OCC(OC(C)=O)C(OC(C)=O)C3OC(C)=O)nc(SC)[nH]c2=O)c(=O)[nH]1 (stereo not drawn)", "observation.type": "GI50", "recorded.value": "> 100 µM (inactive)"}
{"molecule": "O=C(NCc1ccccc1)c1cc2cc(O)c(O)cc2cn1", "observation.type": "GI50", "recorded.value": "73.3 µM (inactive)"}

I have 2 molecules here; please give me GI50 for each one.
1. CCc1ccccc1NC(=O)CCc1nnc(S)[nH]1
2. O=C(CCCc1cccc2[nH]c3c(c12)CN(Cc1ccccc1)CC3)c1ccc(F)cc1

Out:
1: > 100 µM (inactive); 2: > 100 µM (inactive)

// each listed molecule needs a value for GI50
1. O=C1CN(c2cccc(Cl)c2)C(=O)CN1CCN1CC(=O)N(c2cccc(Cl)c2)CC1=O
2. CC1(C)CCC[C@@]2(C)C1C[C@H](O)[C@@]1(C)O[C@@](C)([C@H](O)CO)CCC21 (stereo partly drawn)
3. O=C(/C=C1/Nc2ccc([N+](=O)[O-])cc2N/C1=C/C(=O)c1ccc(Cl)cc1)c1ccccc1
4. N#CC(C#N)=C(C(C#N)C#N)C(C#N)C#N
5. COc1ccc(/C=C/C(=O)C(C)(C)Br)cc1
6. CC(=O)c1cccc(NC(=O)C(=O)C(C(=O)NN)c2ccccc2)c1 (stereo not drawn)
7. COC(=O)/C(=N\NC(=O)c1ccccc1O)C(C#N)c1ccc(Cl)cc1 (stereo not drawn)
8. CC(C)(C)OC(=O)N1[C@@H]2Cc3ccc(N)cc3[C@@]1(C)c1ccccc12

Out:
> 100 µM (inactive)
20.9 µM (inactive)
35.6 µM (inactive)
> 100 µM (inactive)
20 µM (inactive)
> 100 µM (inactive)
> 100 µM (inactive)
30.5 µM (inactive)

For every item below, please supply its GI50.
1. O=[N+]([O-])c1ccc2c(c1)c(S(=O)(=O)O)cc1nonc12
2. C=C(C)[C@@H]1CC[C@]2(COC(C)=O)CC[C@]3(C)[C@H](CC[C@@H]4[C@@]5(C)CC[C@H](OC(C)=O)C(C)(C)[C@@H]5CC[C@]43C)[C@@H]12 [BETULIN DIACETATE]
3. O=C(CSc1nc2ccccc2c(=O)n1-c1ccccc1)N/N=C1\C(=O)Nc2ccc(F)cc21
4. CC(C)CNC(=O)c1c(NC(=O)c2ccccc2)sc2[nH]c(=O)n(-c3ccccc3)c(=O)c12

Out:
> 100 µM (inactive)
> 50 µM (inactive)
1.85 µM (inactive)
27.5 µM (inactive)

In: Dear colleague, I am looking for the recorded GI50 of the following molecule: CCc1ccc(Cc2ccc(CC)c(NC(=O)C(=O)C3NC(=S)NC3=O)c2CC)c(CC)c1NC(=O)C(=O)C1NC(=S)NC1=O (stereo not drawn)
Out: > 100 µM (inactive)

---

Would you kindly list GI50 for each of these compounds?
tested on: HOP-92; test: NCI tumour cell line growth inhibition, 48 h
The source made the active and inactive calls. No stated cut-off is given here; in the data, active = GI50 up to about 1.1 µM and inactive = higher.

For every record below, what is its GI50?
1. COc1cc(/C=C2\S/C(=N/Nc3nc(-c4ccc(Br)cc4)cs3)NC2=O)cc(OC)c1OC
2. CC(C)(C)OC(=O)N1[C@@H]2Cc3ccc(N)cc3[C@@]1(C)c1ccccc12
3. CC(C)(C)[Si](C)(C)OC[C@H](/C=C\CCCC(=O)O)NC1(c2ccccc2)c2ccccc2-c2ccccc21

Out:
["3.63 µM (inactive)", "23.9 µM (inactive)", "11.1 µM (inactive)"]

---

Please respond with reported GI50 for every item in the list.
test system: SF-268; assay: NCI tumour cell line growth inhibition, 48 h
Activity calls are given as the source filed them. No stated cut-off is given here; in the data, active = GI50 up to about 1.1 µM and inactive = higher.

In the examples that follow, each entry is paired with its recorded GI50.
{"molecule": "O=C(c1ccccc1)C(c1ccccc1)C1(O)C(=O)Nc2ccc(Br)cc21 (stereo not given)", "observation.type": "GI50", "recorded.value": "72.6 µM (inactive)"}
{"molecule": "Cc1ccc2nc(NC(=O)C(=O)C3C(=O)NC(=S)NC3=O)sc2c1", "observation.type": "GI50", "recorded.value": "> 100 µM (inactive)"}
{"molecule": "NC12CCC(CC1=O)C2 (stereo not given)", "observation.type": "GI50", "recorded.value": "> 100 µM (inactive)"}
{"molecule": "CN(C)CCNc1ncnc2nc(-c3ccccc3)c(-c3ccccc3)nc12", "observation.type": "GI50", "recorded.value": "> 100 µM (inactive)"}

In: For CCCCCCCCCCCCC/C=C(/COCC[N+](C)(C)C)OC(C)=O.CCCCCCCCCCCCCC/C(=C/OCC[N+](C)(C)C)OC(C)=O , what is its reported GI50?
Out: 1.87 µM (inactive)
